src = ChEMBL document CHEMBL1156757

- ASSAY_NOTES: AUC (0 to infinity) in rat at 2.5 mg/kg, iv
- Assay type: ADME, organism-based
- Design: time infinity, dose 2.5 mg/kg, route intravenous
- STATED_CONDITIONS: plasma
Listed below: AUC(0-inf) values for each entry.
PARAMETER_MEASURED: AUC(0-inf) (ng·h/mL)

smiles_text=CCNC(=O)[C@H]1c2ccccc2CN1C(=O)c1cc(Cl)c(O)cc1O reported_value=1700
smiles_text=O=C([C@H]1c2ccccc2CN1C(=O)c1cc(Cl)c(O)cc1O)N1CCCC1 reported_value=2100

---

- Tested on: Liver microsomes
- ASSAY_NOTES: Hepatic clearance in human liver microsomes […]
- Assay type: ADME, Microsome
Output: class label from CLH. Mapping: 0 (below 7 µL/min), 1 (7 µL/min to below 10 µL/min), 2 (10 µL/min or more)

compound=CO[C@H]1/C=C\C=C(/C)C(=O)NC2=CC(=O)C(NCCN(C)C)=C(C[C@@H](C)C[C@H](OC)[C@H](O)[C@@H](C)/C=C(\C)[C@@H]1OC(N)=O)C2=O assigned_category=0
compound=O=C(c1cc(Cl)c(O)cc1O)N1CCCC1 assigned_category=2
compound="CCCNC(=O)C1c2ccccc2CN1C(=O)c1cc(Cl)c(O)cc1O (stereo not given)" assigned_category=1
compound="O=C(C1c2ccccc2CN1C(=O)c1cc(Cl)c(O)cc1O)N1CCCC1 (stereo not given)" assigned_category=0
compound=O=C(NC1CCCCC1)[C@H]1CCCN1C(=O)c1cc(Cl)c(O)cc1O assigned_category=1
compound=CN(C)C(=O)[C@H]1CCCN1C(=O)c1cc(Cl)c(O)cc1O assigned_category=0
compound="CNC(=O)C1c2ccccc2CN1C(=O)c1cc(Cl)c(O)cc1O (stereo not given)" assigned_category=0
compound="CCNC(=O)C1c2ccccc2CN1C(=O)c1cc(Cl)c(O)cc1O (stereo not given)" assigned_category=0
compound=Cc1ccccc1[C@H]1CCCN1C(=O)c1cc(Cl)c(O)cc1O assigned_category=2
compound=O=C([C@H]1c2ccccc2CN1C(=O)c1cc(Cl)c(O)cc1O)N1CCCC1 assigned_category=2
compound="O=C(NCc1ccccc1)C1c2ccccc2CN1C(=O)c1cc(Cl)c(O)cc1O (stereo not given)" assigned_category=2
compound="CN(C)C(=O)C1c2ccccc2CN1C(=O)c1cc(Cl)c(O)cc1O (stereo not given)" assigned_category=0
compound="C=CCNC(=O)C1c2ccccc2CN1C(=O)c1cc(Cl)c(O)cc1O (stereo not given)" assigned_category=1
